# System: E. faecalis
# Protocol summary: In vitro antibacterial activity (MIC), E. faecalis
# Assay type: cell-based
# Assay setup: Enterococcus faecalis; E. faecalis (7 strains); read-out: MIC
Measurement name: MIC

# annotated cases, reported MIC shown
# Molecule, MIC
data = [
    ("CC(=O)NC[C@H]1CN(c2ccc(-n3cc(-c4ccncc4)cn3)c(F)c2)C(=O)O1 [Compound 13a]", "0.25 to 16 µg/mL"),
    ("CC(=O)NC[C@H]1CN(c2ccc(-n3cc(-c4ccc(C)cc4)cn3)c(F)c2)C(=O)O1 [Compound 13b]", "0.5 to 8 µg/mL"),
    ("COc1ccc(-c2cnn(-c3ccc(N4C[C@H](CNC(C)=O)OC4=O)cc3F)c2)cc1 [Compound 13c]", "0.25 to 8 µg/mL"),
    ("CC(=O)NC[C@H]1CN(c2ccc(-n3cc(-c4ccc(C(=O)O)cn4)cn3)c(F)c2)C(=O)O1 [Compound 13e]", "1 to 8 µg/mL"),
    ("CC(=O)NC[C@H]1CN(c2ccc(-n3nccc3-c3cccc(Br)n3)c(F)c2)C(=O)O1 [Compound 14b]", "4 to 32 µg/mL"),
]

As a next step, examine the molecule that follows.
Give the measured MIC of CC(=O)NC[C@H]1CN(c2ccc(-n3nccc3-c3ccncc3)c(F)c2)C(=O)O1 [Compound 14h] .
0.5 to 8 µg/mL
